molecular target: ABCB1 (Homo sapiens, UniProt P08183); construct: ABCB1 membrane vesicles; experiment: vanadate-sensitive ATPase stimulation in ABCB1 membrane vesicles; supported by HPLC efflux and [3H]-paclitaxel accumulation in KB-C2 cells
Sequence (P08183 whole entry): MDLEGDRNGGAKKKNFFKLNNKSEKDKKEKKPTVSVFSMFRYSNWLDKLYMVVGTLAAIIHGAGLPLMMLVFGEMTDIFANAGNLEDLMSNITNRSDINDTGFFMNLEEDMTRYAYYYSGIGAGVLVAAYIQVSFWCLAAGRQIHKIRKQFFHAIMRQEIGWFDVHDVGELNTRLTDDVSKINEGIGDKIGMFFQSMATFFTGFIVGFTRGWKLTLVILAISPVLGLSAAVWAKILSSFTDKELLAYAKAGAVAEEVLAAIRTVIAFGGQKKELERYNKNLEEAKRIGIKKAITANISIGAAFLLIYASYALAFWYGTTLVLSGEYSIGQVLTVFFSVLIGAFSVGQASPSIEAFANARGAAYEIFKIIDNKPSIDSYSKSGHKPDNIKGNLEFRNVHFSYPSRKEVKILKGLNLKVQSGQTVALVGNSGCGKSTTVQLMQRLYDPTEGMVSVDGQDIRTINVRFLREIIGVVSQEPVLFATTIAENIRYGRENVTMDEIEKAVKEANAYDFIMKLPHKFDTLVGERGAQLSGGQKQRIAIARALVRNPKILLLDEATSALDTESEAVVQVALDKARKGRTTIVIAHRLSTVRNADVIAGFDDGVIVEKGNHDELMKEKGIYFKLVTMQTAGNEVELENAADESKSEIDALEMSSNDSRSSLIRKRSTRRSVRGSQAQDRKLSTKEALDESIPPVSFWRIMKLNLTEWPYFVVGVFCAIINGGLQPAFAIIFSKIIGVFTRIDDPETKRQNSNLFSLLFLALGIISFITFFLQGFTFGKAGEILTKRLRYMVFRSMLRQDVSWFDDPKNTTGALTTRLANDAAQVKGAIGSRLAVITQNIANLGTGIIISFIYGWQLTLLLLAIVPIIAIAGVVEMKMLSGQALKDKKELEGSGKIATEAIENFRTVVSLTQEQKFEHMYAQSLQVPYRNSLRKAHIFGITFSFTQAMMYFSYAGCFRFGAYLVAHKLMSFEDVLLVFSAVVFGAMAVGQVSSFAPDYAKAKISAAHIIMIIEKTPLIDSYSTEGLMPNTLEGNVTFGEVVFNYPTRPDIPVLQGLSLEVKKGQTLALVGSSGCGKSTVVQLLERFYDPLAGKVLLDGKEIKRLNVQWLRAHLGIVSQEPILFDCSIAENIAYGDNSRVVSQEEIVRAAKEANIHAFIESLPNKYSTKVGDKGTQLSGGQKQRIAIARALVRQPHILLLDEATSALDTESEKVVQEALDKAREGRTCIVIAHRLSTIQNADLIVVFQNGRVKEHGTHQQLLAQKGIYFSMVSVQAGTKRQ
OUTCOME MEASURE: pEC50
// pEC50: -log10(molar conc.)

Given the compound C=CC(=O)N1CCN(c2ncnc3c(F)c(-c4c(O)cccc4F)c(Cl)cc23)CC1 , what is its reported pEC50?
4.83
